Reported MIC values for a set of molecules
system: Bacillus subtilis; assay: Antimicrobial activity against Bacillus subtilis ATCC 6633 by MTT assay; assay type: functional
The reply should be a number in µg/mL, with the unit left off.

Example cases with answers are listed next.
>  <molecule>
CC(=O)N1N=C(c2ccccc2F)CC1c1ccc(Br)cc1 (configuration not stated)

>  <unitLabel>
µg/mL

>  <MIC>
25

$$$$
>  <molecule>
NC[C@H]1O[C@H](O[C@H]2[C@H](O)[C@@H](O[C@H]3O[C@H](CO)[C@@H](O)[C@H](N)[C@H]3O)[C@H](N)C[C@@H]2N)[C@H](N)[C@@H](O)[C@@H]1O [BEKANAMYCIN]

>  <unitLabel>
µg/mL

>  <MIC>
0.39

$$$$

*Q* Report MIC for COc1ccc(C2=NN(C(C)=O)C(c3ccc(Cl)cc3)C2)cc1 (configuration not stated) tested on Bacillus subtilis.
*A* 6.25

*Q* Report MIC for CC(=O)N1N=C(c2ccccc2F)CC1c1ccccc1 (configuration not stated) tested on Bacillus subtilis.
*A* 12.5

*Q* Report MIC for CC(=O)N1N=C(c2ccc(Cl)cc2)CC1c1ccc(Br)cc1 (configuration not stated) tested on Bacillus subtilis.
*A* 6.25

*Q* Report MIC for CC(=O)N1N=C(c2ccc(Cl)cc2)CC1c1ccccc1Cl (configuration not stated) tested on Bacillus subtilis.
*A* 6.25

*Q* Report MIC for CC(=O)N1N=C(c2ccccc2)CC1c1ccc(F)cc1 (configuration not stated) tested on Bacillus subtilis.
*A* 25

*Q* Report MIC for CC(=O)N1N=C(c2ccccc2)CC1c1ccccc1Cl (configuration not stated) tested on Bacillus subtilis.
*A* 25

*Q* Report MIC for CC(=O)N1N=C(c2ccccc2F)CC1c1ccc(F)cc1 (configuration not stated) tested on Bacillus subtilis.
*A* 25

*Q* Report MIC for CC(=O)N1N=C(c2ccc(Cl)cc2)CC1c1ccc(C)cc1 (configuration not stated) tested on Bacillus subtilis.
*A* 6.25

*Q* Report MIC for CC(=O)N1N=C(c2ccc(Br)cc2)CC1c1ccc(F)cc1 (configuration not stated) tested on Bacillus subtilis.
*A* 25

*Q* Report MIC for CC1(C)S[C@@H]2[C@H](NC(=O)Cc3ccccc3)C(=O)N2[C@H]1C(=O)O [PENICILLIN G] tested on Bacillus subtilis.
*A* 1.56

*Q* Report MIC for COc1ccc(C2=NN(C(C)=O)C(c3ccc(Br)cc3)C2)cc1 (configuration not stated) tested on Bacillus subtilis.
*A* 12.5

*Q* Report MIC for COc1cc(OC)cc(C2CC(c3ccccc3F)=NN2C(C)=O)c1 (configuration not stated) tested on Bacillus subtilis.
*A* 6.25

*Q* Report MIC for COc1ccc(C2=NN(C(C)=O)C(c3ccc(C)cc3)C2)cc1 (configuration not stated) tested on Bacillus subtilis.
*A* 25

*Q* Report MIC for COc1cc(OC)cc(C2CC(c3ccc(C)c(C)c3)=NN2C(C)=O)c1 (configuration not stated) tested on Bacillus subtilis.
*A* 12.5

*Q* Report MIC for CC(=O)N1N=C(c2ccccc2)CC1c1ccccc1 (configuration not stated) tested on Bacillus subtilis.
*A* 25

*Q* Report MIC for CC(=O)N1N=C(c2ccccc2F)CC1c1ccc(Cl)cc1 (configuration not stated) tested on Bacillus subtilis.
*A* 12.5
